A collection of molecules and their measured IC50
Target: PLA2 from Rat Platelet (Rattus norvegicus)
Construct: PLA2 released from thrombin-stimulated rat platelets; from tissue; host or cells: thrombin-stimulated rat platelets (released enzyme, purified on MD 7.1 antibody-coupled Sepharose)
Sequence (P14423 22-146): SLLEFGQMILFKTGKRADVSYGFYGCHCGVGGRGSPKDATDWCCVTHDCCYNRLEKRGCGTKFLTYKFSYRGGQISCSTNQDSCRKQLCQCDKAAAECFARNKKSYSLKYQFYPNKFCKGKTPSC
Assay: PLA2 inhibitory activity (release of free fatty acid from [14C]phosphatidylethanolamine)
Type: biochemical
Details: Table 5; lactone; 37° C., 20 minutes, pH 7.4; read-out: PLA2 Inhibitory Activity, IC50, lactone (converted)
METRIC: IC50 (µM)

{"columns": ["MOLECULE", "TARGET OR SYSTEM", "METRIC", "VALUE PREFIX", "OBSERVED MEASUREMENT"],
 "data": [
  ["C=CCCCCCCCCC1CC2(OC(=O)C(O)C2(O)C(=O)O)C(=O)O1 (centres unmarked) [Cinatrin A]", "PLA2 from Rat Platelet (Rattus norvegicus)", "IC50", "=", 316],
  ["CCCCCCCCCCCCC1(C(=O)O)OC(=O)C(O)C1(O)C(=O)O (centres unmarked) [Cinatrin C1]", "PLA2 from Rat Platelet (Rattus norvegicus)", "IC50", ">", 801],
  ["CCCCCCCCCCCC(O)C1C(=O)OC(C(=O)O)C1(O)C(=O)O (centres unmarked) [Cinatrin C2]", "PLA2 from Rat Platelet (Rattus norvegicus)", "IC50", "=", 801],
  ["CCCCCCCCCCC1CC2(OC(=O)C(O)C2(O)C(=O)O)C(=O)O1 (centres unmarked) [Cinatrin B]", "PLA2 from Rat Platelet (Rattus norvegicus)", "IC50", "=", 147],
  ["CCCCCCCCCCCCC1(O)C(=O)OC(C(=O)O)C1(O)C(=O)O (centres unmarked) [Cinatrin C3]", "PLA2 from Rat Platelet (Rattus norvegicus)", "IC50", "=", 78.8]
]}
